Values from patent US20250051445A1

Let's look at some binders and their measured fold decrease in EC50.
- targetUnderTest: α/β TCR/CD3 complex on Jurkat, Clone E6-1 cells (human) (UniProt P07766)
- measurementDescription: flow cytometry on Jurkat Clone E6-1 cells, Fab titration 10 µg/ml to 10 ng/ml; EC50 of MFI, fold decrease vs TPP-1374
Dear colleague, please return just the value in fold, with no unit written.

binder: TPP-1377 Fab fragment (Fab, V domains shown) VH: EVQLVQSGAEVKKPGASVKVSCKASGYKFTKYVMHWVRQAPGQGLEWMGYINPYNDVTKYAEKFQGRVTLTSDTSTSTAYMELSSLRSEDTAVHYCARGSYYDYEGFVYWGQGTLVTVSS VL: QIQMTQSPSSLSASVGDRVTITCSATSSVSYMHWYQQKPGKAPKRWIYDTSKLASGVPSRFSGSGSGTDYTLTISSLQPEDAATYYCQQWSSNPLTFGGGTKVEIKR
units: fold
fold decrease in EC50: 4.1

Now, please, on to the next binder.
In: Can you share its fold decrease in EC50? I mean this binder: TPP-1380 Fab fragment (Fab, V domains shown) VH: EVQLVQSGAEVKKPGASVKVSCKASGYKFTSYVMHWVRQAPGQGLEWMGYINPYRDVTKYAEKFQGRVTLTSDTSTSTAYMELSSLRSEDTAVHYCARGSYYDYEGFVYWGQGTLVTVSS VL: QIQMTQSPSSLSASVGDRVTITCSATSSVSYMHWYQQKPGKAPKRWIYDTSKLASGVPSRFSGSGSGTDYTLTISSLQPEDAATYYCQQWSSNPLTFGGGTKVEIKR
Out: 2.9
